Measured In Vitro (MIC) MRSA 15187, listed per entry.
Tested on: MRSA 15187
assay remarks: MIC by agar incorporation method, MRSA 15187
Assay type: cell-based, Methicillin Resistant Staphylococcus aureus
Parameters: unit not given here
condition summary: Mueller Hinton agar, 10^4 CFU/spot, 24 hours
Provide a numeric answer; units are not to be included.

Request: What measured In Vitro (MIC) MRSA 15187 is associated with CC(=O)NC[C@H]1CN(c2ccc(N3CCN(C(=O)C=Cc4ccc([N+](=O)[O-])s4)CC3)c(F)c2)C(=O)O1 [Compound No. 40] on MRSA 15187?
Result: 0.25

Request: What measured In Vitro (MIC) MRSA 15187 is associated with CC(=O)NC[C@H]1CN(c2ccc(N3CCN(CC(=O)c4cccs4)CC3)c(F)c2)C(=O)O1 [Compound No. 2] on MRSA 15187?
Result: 8

Request: What measured In Vitro (MIC) MRSA 15187 is associated with CC(=O)NC[C@H]1CN(c2ccc(N3CCN(Cc4cc(C#N)c([N+](=O)[O-])s4)CC3)c(F)c2)C(=O)O1 [Compound No. 6] on MRSA 15187?
Result: 2

Request: What measured In Vitro (MIC) MRSA 15187 is associated with CC(=O)NC[C@H]1CN(c2ccc(N3CCN(C(=O)c4ccc(-c5ccc(Cl)cc5[N+](=O)[O-])o4)CC3)c(F)c2)C(=O)O1 [Compound No. 35] on MRSA 15187?
Result: 1

Request: What measured In Vitro (MIC) MRSA 15187 is associated with CC(=O)NC[C@H]1CN(c2ccc(N3CCN(C(=O)c4ccc([N+](=O)[O-])o4)C(C)C3)c(F)c2)C(=O)O1 (stereo partly shown) [Compound No. 69] on MRSA 15187?
Result: 1

Request: What measured In Vitro (MIC) MRSA 15187 is associated with COc1ccc(CN2CCN(c3ccc(N4C[C@H](CNC(C)=O)OC4=O)cc3F)CC2)o1 [Compound No. 15] on MRSA 15187?
Result: 4

Attention now shifts to the item below.
Request: What measured In Vitro (MIC) MRSA 15187 is associated with CC(=O)NC[C@H]1CN(c2ccc(N3CCN(Cc4ccc([N+](=O)[O-])[nH]4)CC3)c(F)c2)C(=O)O1 [Compound No. 13] on MRSA 15187?
Result: 2

---

System: MRSA 15187
assay remarks: MIC by agar incorporation method, MRSA 15187
Type: cell-based, Methicillin Resistant Staphylococcus aureus
Set-up: unit not given here
condition summary: Mueller Hinton agar, 10^4 CFU/spot, 24 hours
readout name: In Vitro (MIC) MRSA 15187
Provide a numeric answer; units are not to be included.

See these solved cases before continuing.
Request: Entry under review: O=C(NC[C@H]1CN(c2ccc(N3CCN(Cc4ccc([N+](=O)[O-])o4)CC3)c(F)c2)C(=O)O1)C(F)F . Reported In Vitro (MIC) MRSA 15187?
Result: 1

Request: Entry under review: CC(=O)NC[C@H]1CN(c2ccc(N3CCN(Cc4cc(Br)c([N+](=O)[O-])s4)CC3)c(F)c2)C(=O)O1 . Reported In Vitro (MIC) MRSA 15187?
Result: 1

Further cases:
Request: Entry under review: CC(=O)NC[C@H]1CN(c2ccc(N3CCN(C(=O)c4oc([N+](=O)[O-])cc4C)CC3)c(F)c2)C(=O)O1 . Reported In Vitro (MIC) MRSA 15187?
Result: 0.5

Request: Entry under review: CC(=O)NC[C@H]1CN(c2ccc(N3CCN(C(=O)c4ccc([N+](=O)[O-])o4)CC3)c(F)c2)C(=O)O1 . Reported In Vitro (MIC) MRSA 15187?
Result: 0.5

Reference for the values: patent US20040242591A1
